experimental.target: Gal4S(b1-4)GlcNAc
assay: glycan array binding signal (z-score within array); higher = stronger binding
reported.conditions: glycan notation: IUPAC condensed, linker removed
The full list was thinned out, with the strongest signals kept by preference.
Could you label it yes (1) if measured glycan array binding signal (z-score) is 0.05 or higher, and no (0) otherwise?

- Cohesin-hMARCO (Homo sapiens) (protein) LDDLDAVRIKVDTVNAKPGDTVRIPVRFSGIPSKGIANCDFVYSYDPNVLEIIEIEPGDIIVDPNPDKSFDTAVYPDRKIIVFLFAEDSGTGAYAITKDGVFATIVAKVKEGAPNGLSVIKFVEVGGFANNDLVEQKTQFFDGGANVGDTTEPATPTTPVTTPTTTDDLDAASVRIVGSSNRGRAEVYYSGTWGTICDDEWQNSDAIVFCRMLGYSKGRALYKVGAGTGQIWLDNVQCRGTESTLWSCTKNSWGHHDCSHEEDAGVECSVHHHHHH: no (0)

Prompt line: Check the entry STA (Solanum tuberosum) (protein) NASAPLPYPQCGLKKGGGKCIKTGECCSIWGWCGTTSDYCAPGYCQKQCPGPYPQGRCGWQANGKSCPTGTGQCCSNAGWCGTTSDYCAPNNCQSQCKLPPPPPSPPPPPPSPPPPSPPPPPPSPPPPSPSPPPPPPSPPPPSPPPPSPPPPSPPPPPSPSPPPPPPSPPPPPPPLPYPQCGMKKGGGKCIKTGECCSIWGWCGTTSKYCSPGYCQMQCPDPYPEGRCGWQANGKSCPTGTGQCCSNAGWCGTTSAYCAPVNCQAQCNTTTLTSPIKNRMRGIESFMLNVV : does glycan array binding signal (z-score) equal or exceed 0.05?
Response line: yes (1)

Prompt line: Is the recorded value of glycan array binding signal (z-score) equal to or greater than 0.05 for this binder? Nc3LysM-2 (protein) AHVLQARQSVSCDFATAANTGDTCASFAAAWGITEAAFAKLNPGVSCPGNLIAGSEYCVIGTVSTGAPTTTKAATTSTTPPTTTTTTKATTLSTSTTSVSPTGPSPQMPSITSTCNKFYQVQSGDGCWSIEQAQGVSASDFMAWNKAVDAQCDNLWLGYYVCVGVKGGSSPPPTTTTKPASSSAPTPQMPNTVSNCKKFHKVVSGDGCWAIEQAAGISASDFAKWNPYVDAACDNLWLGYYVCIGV
Response line: no (0)

Prompt line: Determine whether this binder has glycan array binding signal (z-score) no lower than 0.05: HPAIIITrx (Helix pomatia), Q1KM18 (protein) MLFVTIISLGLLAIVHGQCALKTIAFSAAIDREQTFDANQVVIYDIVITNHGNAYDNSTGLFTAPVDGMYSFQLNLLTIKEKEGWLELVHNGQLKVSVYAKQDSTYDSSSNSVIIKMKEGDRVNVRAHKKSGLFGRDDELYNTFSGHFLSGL
Response line: no (0)

Prompt line: Decide: is the reported value of glycan array binding signal (z-score) for RegIIIalpha (Mus musculus), O09037 (protein) MLPHLVLNSISWMLLSCLLFVFQVQGEDFQKEVPSPRTSCPMGYKAYRSHCYALVMTPKSWFQADLVCQKRPSGHLVSILSGGEASFVSSLVNGRVDNYQDIWIGLHDPTMGQQPNGGGWEWSNSDVLNYLNWDGDPSSTVNRGHCGSLTASSGFLKWGDYYCDGTLPFVCKFKQ equal to or greater than 0.05?
Response line: yes (1)

Values from the supplement of paper PMC8728848
